System: Schistosoma mansoni
Test: Concentration required to kill 50% of 42 day old worms 5 days after drug treatment.
Assay type: functional, organism-based
Conditions: Puerto Rican, 120 h
pEC50: −log10 of the molar value.
Property name: pEC50

> print(dat)
                                smiles.entry            tested.on  bound.operator  numeric.readout
 1  Fc1ccc(-c2cn3c(-c4ccc5[nH]ncc5c4F)c(C4CC4)nc3cn2)cc1S(F)(F)(F)(F)F  Schistosoma mansoni               =             7.76
 2  COc1ccc(-c2c(C(C)C)nc3cnc(-c4cccc(C(F)(F)F)c4)cn23)cc1O  Schistosoma mansoni               >             7.09
 3  Fc1ccc(-c2cn3c(-c4ccc5[nH]ncc5c4)c(C(F)(F)F)nc3cn2)cc1C(F)(F)F  Schistosoma mansoni               =             6.48
 4  CC(C)c1cc(-c2cn3c(-c4c(F)cc(O)cc4F)c(C4CC4)nc3cn2)ccc1F  Schistosoma mansoni               =             8.35
 5  Cc1nc2cnc(-c3ccc(F)c(C(F)(F)C(F)(F)F)c3)cn2c1-c1c(F)cc(O)cc1F  Schistosoma mansoni               =             7.71
 6  CC(C)c1nn2cnc(-c3cccc(C(F)(F)F)c3)cc2c1-c1c(F)cc(O)cc1F  Schistosoma mansoni               =             7.66
 7  Fc1ccc(-c2cn3c(-c4ccc5[nH]ncc5c4F)c(C4CCC4)nc3cn2)cc1C(F)(F)F  Schistosoma mansoni               =             7.43
 8  CC(C)c1nc2cnc(-c3cccc(C(F)(F)F)c3)cn2c1-c1ccc(OP(=O)(O)O)cc1F  Schistosoma mansoni               >             7.31
 9  CC(C)c1nc2cnc(-c3ccc(F)c(C(F)(F)F)c3)cn2c1-c1ccc2[nH]ncc2c1  Schistosoma mansoni               =             6.73
10  CC(C)c1nc2cnc(-c3ccc(F)c(S(F)(F)(F)(F)F)c3)cn2c1-c1ccc2[nH]ncc2c1F  Schistosoma mansoni               =             7.95
11  CC(C)Oc1cccc(-c2cn3c(-c4cnn(Cc5ccccc5)c4)cnc3cn2)c1  Schistosoma mansoni               <             4.60
12  CC(C)c1nc2cnc(-c3ccc(F)c(C(F)(F)F)c3)cn2c1-c1c(F)ccc(O)c1F  Schistosoma mansoni               =             6.34
13  COc1cc(-c2c(C)nc3cnc(-c4cccc(C(F)(F)F)c4)cn23)ccc1O  Schistosoma mansoni               >             6.19
14  Oc1ccc(-c2c(C(F)(F)F)nc3cnc(-c4cccc(C(F)(F)F)c4)cn23)c(F)c1  Schistosoma mansoni               >             7.31
15  COc1ccc(-c2cnc3cnc(-c4cccc(OC)c4)cn23)cc1  Schistosoma mansoni               =             5.17
16  CCc1cccc(-c2cn3c(-c4ccc(OC)c(OC)c4)cnc3cn2)c1  Schistosoma mansoni               =             5.97
17  CC(C)Oc1cccc(-c2cn3c(-c4ccnc(C(F)(F)F)c4)cnc3cn2)c1  Schistosoma mansoni               <             4.60
18  CC(C)Oc1cccc(-c2cn3c(-c4ccc(O)cc4)cnc3cn2)c1  Schistosoma mansoni               =             5.35
19  Oc1cc(F)c(-c2c(C3CC3)nc3cnc(-c4ccc(F)c(C(F)(F)C(F)(F)F)c4)cn23)c(F)c1  Schistosoma mansoni               =             7.98
20  COc1ccc(-c2cnc3cnc(-c4cccc(OC(C)C)c4)cn23)cc1OC  Schistosoma mansoni               =             5.25
21  Fc1ccc(-c2cn3c(-c4ccc5[nH]ncc5c4F)c(C(F)(F)F)nc3cn2)cc1C1CC1  Schistosoma mansoni               =             7.92
22  COc1cc(-c2c(C(C)C)nc3cnc(-c4cccc(C(F)(F)F)c4)cn23)cc2cn[nH]c12  Schistosoma mansoni               =             6.37
23  Fc1ccc(-c2cn3c(-c4ccc5[nH]ncc5c4F)c(C(F)(F)F)nc3cn2)cc1CC(F)(F)F  Schistosoma mansoni               =             7.92
24  COc1ccc(-c2cnc3cnc(-c4ccc(N5CCN(C)CC5)nc4)cn23)cc1  Schistosoma mansoni               <             4.60
25  CCOc1cccc(-c2cn3c(-c4ccc(OC)cc4)cnc3cn2)c1  Schistosoma mansoni               =             4.92
26  Oc1ccc(-c2cnc3ccc(-c4cccc(C(F)(F)F)c4)nn23)c(F)c1  Schistosoma mansoni               <             4.60
27  CC(C)c1nc2cnc(-c3cccc(Br)c3)cn2c1-c1ccc2[nH]ncc2c1F  Schistosoma mansoni               =             7.44
28  CC(C)c1nc2cnc(-c3ccc(F)c(C(F)(F)F)c3)cn2c1-c1ccc(O)cc1Cl  Schistosoma mansoni               =             6.99
29  CCc1nc2cnc(-c3cccc(C(F)(F)F)c3)cn2c1-c1ccc(O)cc1F  Schistosoma mansoni               >             6.85
30  Fc1ccc(-c2cn3c(-c4ccc5[nH]ncc5c4F)c(C(F)(F)F)nc3cn2)cc1OC(F)(F)F  Schistosoma mansoni               =             7.77
31  CCc1nc2cnc(-c3ccc(F)c(C(F)(F)F)c3)cn2c1-c1ccc2[nH]ncc2c1F  Schistosoma mansoni               =             7.35
32  Cc1nc2cnc(-c3cccc(C(C)C)c3)cn2c1-c1ccc(O)cc1  Schistosoma mansoni               >             6.37
33  CC(C)c1nc2cnc(-c3ccc(F)c(C(F)(F)F)c3)nc2n1-c1c(F)cc(O)cc1F  Schistosoma mansoni               =             7.15
34  CCc1nc2cnc(-c3ccc(F)c(C(F)(F)C(F)(F)F)c3)cn2c1-c1c(F)cc(O)cc1F  Schistosoma mansoni               =             8.04
35  CC(C)c1nc2cnc(-c3ccc(F)c(C(F)(F)F)c3)cn2c1-c1c(F)cc(O)cc1F  Schistosoma mansoni               >             7.34
36  Oc1ccc(-c2cnc3cnc(-c4cccc(C(F)(F)F)c4)cn23)c(F)c1  Schistosoma mansoni               =             5.63
37  CC(C)c1cccc(-c2cn3c(-c4ccc5[nH]ncc5c4F)c(C(F)(F)F)nc3cn2)c1  Schistosoma mansoni               =             8.28
38  COc1ccc(-c2c(C(C)C)nc3cnc(-c4ccc(F)c(C(F)(F)F)c4)cn23)cc1O  Schistosoma mansoni               >             7.31
